# Protocol Notes: solvent given as SMILES
# Study Conditions: in CC#N
Assignment: determine reported fluorescence lifetime for the given compounds.
Lab book: enter the figure in ns, no units written.

For COc1ccc(C#Cc2ccc(C#N)cc2)cc1 , what is its reported fluorescence lifetime? 0.76

Given the entry CCOc1cc2c(cc1/C=C/C1=CC(=C(C#N)C#N)CC(C)(C)C1)c1ccccc1n2CC , report its measured fluorescence lifetime. 3.81

Consider the compound shown here: COC(=O)C(NC(=O)OC(C)(C)C)c1ccc2oc(-c3ccc(C#N)cc3)nc2c1 (stereo not given) What is its recorded fluorescence lifetime? 1.87

Using the record for CCOC(=O)CN(CC(=O)OCC)c1ccc(-c2cc(-c3ccncc3)nc(-c3ccncc3)c2)cc1 , report its fluorescence lifetime. 5.84

For the compound COc1cc(/C=C2/SC(=O)NC2=O)cc(OC)c1O , what fluorescence lifetime is on record? 0.521

Requested field: fluorescence lifetime. Item: COc1ccc(-c2nc(-c3ccc(-c4nc(-c5ccc(OC)cc5)c(-c5ccc(OC)cc5)[nH]4)s3)[nH]c2-c2ccc(OC)cc2)cc1 1.42

Quick one: fluorescence lifetime of COc1cccc(/C=C/c2ccccc2)c1 ? 0.93

Could you share which fluorescence lifetime value was measured for c1ccc(-n2cccc2)cc1 ? 3.6

Form field: reported fluorescence lifetime of FC(F)(F)c1ccc(/C=C/c2nc3c(ccc4ccccc43)s2)cc1 0.84

Reported fluorescence lifetime for COC(=O)C12N=N[C@](C(=O)OC)(C3C4C=CC(C4)C31)[C@@H]1C[C@H]12 (stereo not given in full) : what is it? 131

###

# Protocol Notes: solvent given as SMILES
# Study Conditions: in CC#N
I'd be grateful if you could share measured log10 fluorescence lifetime for these entries.
Use the decimal logarithm of fluorescence lifetime (ns).

Reported log10 fluorescence lifetime for CN(C)c1ccc(/C=C/C(=C(C#N)C#N)c2ccc3c4c(cccc24)CC3)cc1 : what is it? 0.35

Given the molecule COc1cc(N(c2ccccc2)c2ccccc2)ccc1C=C(C#N)C#N , what is its reported log10 fluorescence lifetime? -1.70

Bench note: what log10 fluorescence lifetime did O=[N+]([O-])c1ccc(F)cc1C1CC(c2cccc3ccccc23)=NN1c1ccccc1 (stereo not given) show? 0.58

Which log10 fluorescence lifetime reading was recorded for the molecule C(C#Cc1ccc2ccc3cccc4ccc1c2c34)#Cc1cccc2ccccc12 ? 0.08

Suppose we examine the molecule CC1=CC(/C=C/c2ccc([N+](C)(C)C)cc2)=[N+]2C1=C(c1ccc(I)cc1)c1c(C)cc(/C=C/c3ccc([N+](C)(C)C)cc3)n1[B-]2(F)F ; what log10 fluorescence lifetime value has been reported? 0.71

###

# Protocol Notes: solvent given as SMILES
# Study Conditions: in CCCO
Endpoint Name: fluorescence lifetime (ns)
# output: bare number, implied unit ns

For the compound shown here, CCC1(CC)c2cc(-c3ccc(C(C)(C)C)cc3)ccc2-c2ccc(-c3ccc4c(c3)C(CC)(CC)c3cc(-c5ccc6c(c5)C(CC)(CC)c5cc(-c7ccc(C(C)(C)C)cc7)ccc5-6)ccc3-4)cc21 , give the reported fluorescence lifetime. 0.65

Please give the measured fluorescence lifetime for this compound: CCC1(CC)c2cc(-c3ccc4c(c3)C(CC)(CC)c3cc(C(C)(C)C)ccc3-4)ccc2-c2ccc(-c3ccc4c(c3)C(CC)(CC)c3cc(C(C)(C)C)ccc3-4)cc21 0.8

Item N#Cc1ccc(C[C@H](N)C(=O)O)cc1 has what recorded fluorescence lifetime? 4.4

Return reported fluorescence lifetime; argument: CCOC(=O)c1ccc2c(c1)sc1c3ccc(C(=O)OCC)cc3sc21 0.35
